These data points were gathered from PubChem BioAssay (NCI).

- Tested on: RXF 393 renal
- ASSAY_TEXT: NCI-60 one-dose screen, 48 h
- CONDITION_DETAILS: 10 µM
This is part of a sample that, as a whole, favours compounds with a hit. Of some 83,000 tested, about 20% had one in any assay. Calls of active or inactive are those of the source. Rule for the calls: active = growth percent below 10; inactive = the rest.
Outcomes: 1 (active), -1 (inactive)

- MOLECULE: "NCCNc1ccc2cc(-c3nc4ccccc4[nH]3)c(=O)oc2c1"
  ASSAY_SYSTEM: "RXF 393 renal"
  ASSIGNED_CLASS: -1
- MOLECULE: "Cc1ccc2c(c1)-c1cc(C)nn1-c1ccc(C#N)cc1O2"
  ASSAY_SYSTEM: "RXF 393 renal"
  ASSIGNED_CLASS: -1
- MOLECULE: "Cn1c([N+](=O)[O-])cnc1/C=C1\\Oc2ccc(Br)cc2C1=O"
  ASSAY_SYSTEM: "RXF 393 renal"
  ASSIGNED_CLASS: 1
- MOLECULE: "COc1cc(C(c2c[nH]c3ccccc23)N2CCCC2)ccc1OCc1ccccc1 (stereo not drawn)"
  ASSAY_SYSTEM: "RXF 393 renal"
  ASSIGNED_CLASS: -1
- MOLECULE: "c1ccc(CC(NCCNC(Cc2ccccc2)c2ccccc2)c2ccccc2)cc1 (stereo not drawn)"
  ASSAY_SYSTEM: "RXF 393 renal"
  ASSIGNED_CLASS: 1
- MOLECULE: "O=[N+]([O-])c1ccc2c(c1)Cc1cc(I)ccc1-2"
  ASSAY_SYSTEM: "RXF 393 renal"
  ASSIGNED_CLASS: -1
- MOLECULE: "CCN(Cc1ccccc1)C1CCN(Cc2cc(Br)ccc2O)CC1"
  ASSAY_SYSTEM: "RXF 393 renal"
  ASSIGNED_CLASS: -1
- MOLECULE: "COc1ccc2oc(=O)cc(C3c4ccc([nH]4)C(c4cc(=O)oc5ccc(OC)cc45)c4ccc([nH]4)C(c4cc(=O)oc5ccc(OC)cc45)c4ccc([nH]4)C(c4cc(=O)oc5ccc(OC)cc45)c4ccc3[nH]4)c2c1 (stereo not drawn)"
  ASSAY_SYSTEM: "RXF 393 renal"
  ASSIGNED_CLASS: 1
- MOLECULE: "CC(=O)O[C@H]1CC[C@@]2(C)[C@@H](CC[C@@H]3[C@@H]2CC[C@]2(C)C=C(C=O)C[C@@H]32)C1"
  ASSAY_SYSTEM: "RXF 393 renal"
  ASSIGNED_CLASS: -1
- MOLECULE: "CCCCN(CCCC)c1ccc(C(=NC(C)CCCN(CC)CC)c2ccc(N(C)C)cc2)cc1 (stereo not drawn)"
  ASSAY_SYSTEM: "RXF 393 renal"
  ASSIGNED_CLASS: 1
- MOLECULE: "Cc1cc(Nc2cccc(F)c2)nc(NCc2ccccc2)n1"
  ASSAY_SYSTEM: "RXF 393 renal"
  ASSIGNED_CLASS: -1
- MOLECULE: "O=C1CC[C@@H](C(=O)N[C@H]2CSSC[C@@H](C(=O)N/C=C/c3ccc(O)cc3)NC(=O)[C@H](Cc3ccccc3)NC(=O)[C@@H]3CCCN3C(=O)[C@@H]3CCCN3C2=O)N1"
  ASSAY_SYSTEM: "RXF 393 renal"
  ASSIGNED_CLASS: -1
- MOLECULE: "COc1ccc(S(=O)(=O)Nc2ccc(OCc3nnc(-c4ccc(Cl)cc4)o3)c(F)c2)cc1"
  ASSAY_SYSTEM: "RXF 393 renal"
  ASSIGNED_CLASS: -1
- MOLECULE: "CCCCCN(CCCCC)C(C)C(O)c1ccc2cc(Cl)c3ccccc3c2c1 (stereo not drawn)"
  ASSAY_SYSTEM: "RXF 393 renal"
  ASSIGNED_CLASS: -1
- MOLECULE: "C#CCNCCCN1C(=O)c2ccc3c4c(ccc(c24)C1=O)C(=O)N(CCCNCC#C)C3=O"
  ASSAY_SYSTEM: "RXF 393 renal"
  ASSIGNED_CLASS: 1
- MOLECULE: "O=[N+]([O-])c1ccc(S(=O)(=O)OCCCCOS(=O)(=O)c2ccc([N+](=O)[O-])cc2)cc1"
  ASSAY_SYSTEM: "RXF 393 renal"
  ASSIGNED_CLASS: -1
- MOLECULE: "Nc1ncc(-c2ccc(C(F)(F)F)cc2)c(NC2CCCCCC2)n1"
  ASSAY_SYSTEM: "RXF 393 renal"
  ASSIGNED_CLASS: -1
- MOLECULE: "NC1CCC(Nc2nc(NCc3ccc(-c4cccs4)nc3)c3ncn(C4CCCC4)c3n2)CC1 (stereo not drawn)"
  ASSAY_SYSTEM: "RXF 393 renal"
  ASSIGNED_CLASS: 1
- MOLECULE: "O=C(Nc1cccc(-c2nc3ccccc3[nH]2)c1)c1cccc(NC(=O)c2ccco2)c1"
  ASSAY_SYSTEM: "RXF 393 renal"
  ASSIGNED_CLASS: -1
- MOLECULE: "O=C(Nc1ccc(CN2CCOCC2)cc1)c1ccc(-c2cc(Cl)ccc2Cl)o1"
  ASSAY_SYSTEM: "RXF 393 renal"
  ASSIGNED_CLASS: -1
- MOLECULE: "COc1cccc(C(=O)NNc2nc(N3CCN(C4CCCCC4)CC3)nc(N3CCN(C(c4ccccc4)c4ccccc4)CC3)n2)c1"
  ASSAY_SYSTEM: "RXF 393 renal"
  ASSIGNED_CLASS: -1
- MOLECULE: "CCCCOCC(=O)NC(NP(=O)(N(C)C)N(C)C)C(Cl)(Cl)Cl (stereo not drawn)"
  ASSAY_SYSTEM: "RXF 393 renal"
  ASSIGNED_CLASS: -1
- MOLECULE: "Oc1ccccc1-c1nnc(Cn2c(Cc3cccc4ccccc34)nc3ccccc32)o1"
  ASSAY_SYSTEM: "RXF 393 renal"
  ASSIGNED_CLASS: -1

###

- System: HOP-92 NSCLC
- ASSAY_TEXT: NCI-60 one-dose screen, 48 h (100 = growth as untreated, 0 = no growth, -100 = all killed)
- CONDITION_DETAILS: 10 µM
- Experimental: Growth inhibition of the HOP-92 human Non-Small Cell Lung tumor cell line is measured as a screen for anti-cancer activity. Cells are grown in 96 well plates and exposed to the test compound for 48 hours. Compounds are tested at a single concentration, which is 10^-5 M for most compounds. The reported endpoint is percent growth (GI% or GIPRCNT), where numbers from 0 - 100% represent growth inhibition, and numbers from -100% - 0 represent cell death. […]
The panel holds about 83,000 compounds, 20% with a hit somewhere; the sample as a whole holds those more often.
The compounds listed here are annotated with their growth.

- CHEM_SMILES: "Cn1c([N+](=O)[O-])cnc1/C=C1\\Oc2ccc(Br)cc2C1=O"
  growth [%]: -32
- CHEM_SMILES: "CC1(C)CC(OCCCC[P+](c2ccccc2)(c2ccccc2)c2ccccc2)CC(C)(C)N1O"
  growth [%]: -41.4
- CHEM_SMILES: "COc1ccc2c(c1)/C(=C/c1cc(OC)c(OC)c(OC)c1)C(=O)N2C"
  growth [%]: -7.03
- CHEM_SMILES: "COc1ccc(Cn2cc3c(c2-c2ccccc2)CC(C)(C)c2cnoc2-3)cc1"
  growth [%]: 59.9

###

- Tested on: K-562 leukemia
- ASSAY_TEXT: NCI-60 one-dose screen, 48 h
- CONDITION_DETAILS: 10 µM
Compounds without any hit were thinned out: in the full panel of roughly 83,000, 20% have a hit. Activity calls are given as the source filed them. Rule for the calls: active = growth percent below 10; inactive = the rest.
Possible outcomes: true = active, false = inactive

- MOLECULE: "COc1cc(C(c2c[nH]c3ccccc23)N2CCCC2)ccc1OCc1ccccc1 (stereo not given)"
  ASSIGNED_CLASS: "false"
- MOLECULE: "Cc1cc(=O)oc2cc(OCc3cn(CC(O)CO)nn3)ccc12 (stereo not given)"
  ASSIGNED_CLASS: "false"
- MOLECULE: "CNC(=O)c1cc(Oc2ccc(NC(=O)Nc3ccc(Cl)c(OC4CCCCC4)c3)c(F)c2)ccn1"
  ASSIGNED_CLASS: "false"
- MOLECULE: "CC(C)OCc1cc(CN2CCN(c3cccc(Cl)c3)CC2)c(O)c2ncccc12"
  ASSIGNED_CLASS: "true"
- MOLECULE: "Oc1cc(O)c(Br)cc1Br"
  ASSIGNED_CLASS: "false"

###

Documented growth across a set of molecules
- Tested on: HS 578T breast
- ASSAY_TEXT: NCI-60 one-dose screen, 48 h (100 = growth as untreated, 0 = no growth, -100 = all killed)
- CONDITION_DETAILS: 10 µM
About 83,000 compounds went through this panel and 20% of them were active in at least one assay; those are over-represented in the sample as a whole.

- MOLECULE: "Clc1cc(Cl)c(Cl)c(-c2nc(-c3cccnc3)cs2)c1"
  growth, %: 98.9
- MOLECULE: "O=C(CCc1ccccc1)N1CCN(C(=O)CCc2ccccc2)CC1"
  growth, %: 100
- MOLECULE: "Cc1nc(N)sc1Sc1nc2ccc(Cl)cc2c(=O)n1-c1ccc(Oc2ccccc2)cc1"
  growth, %: 81.9
- MOLECULE: "O=C(O)CN1C(=O)C=CC1=O"
  growth, %: 107
- MOLECULE: "O=c1ccc2nc(-c3ccccc3)nn(-c3ccccc3)c-2c1"
  growth, %: 75.9
- MOLECULE: "O=C(c1ccccc1)C(Nc1ccccc1)c1ccccc1 (centres undefined)"
  growth, %: 95.1
- MOLECULE: "CCCCCc1cc[n+](CC(=O)c2ccc(Cl)cc2)cc1"
  growth, %: 95.9
- MOLECULE: "Cc1nc2scc(-c3ccc(Cl)cc3)n2c(=O)c1CCN1CCOCC1"
  growth, %: 106
- MOLECULE: "Nc1nsc(C(=O)c2ccc(O)cc2)n1"
  growth, %: 98.1
- MOLECULE: "O=C(Nc1cccc(F)c1)Nc1cccc(Cl)c1"
  growth, %: 97.3
- MOLECULE: "Nc1ccc2c(c1)Cc1cc(N)c(Cl)cc1-2"
  growth, %: 89.8
- MOLECULE: "CC(=O)OC1Oc2ccccc2-c2oc(=O)c(-c3ccc(F)cc3)cc21 (centres undefined)"
  growth, %: -26.6
- MOLECULE: "Cn1c([N+](=O)[O-])cnc1C=C1C(=O)c2ccccc2C1=O"
  growth, %: 26.4
- MOLECULE: "COc1cc(C(=O)n2nc(N)c3c(C)cc(C)nc32)cc(OC)c1OC"
  growth, %: 83.2
- MOLECULE: "O=C(NNC(=O)c1ccncc1)Nc1ccc([N+](=O)[O-])cc1"
  growth, %: 107
- MOLECULE: "CC(=O)Nc1nc(C)c(C(=O)NNC=O)s1"
  growth, %: 77
- MOLECULE: "COc1cccc(-c2nnc(COc3ccc(-c4nc5ccccc5[nH]4)cc3OC)o2)c1"
  growth, %: 102
- MOLECULE: "Oc1[nH]c2ccccc2c1/C=c1/cc2c(c(-c3ccc(C(F)(F)F)cc3)n1)=Nc1ccccc1-2"
  growth, %: 74.8
- MOLECULE: "O=C(NC1CCN(Cc2ccccc2)CC1)c1cc(-c2ccncc2)nc2ccc(Cl)cc12"
  growth, %: 59.9
- MOLECULE: "COc1ccccc1NC1=C(N2CCCCC2)C(=O)c2ccccc2C1=O"
  growth, %: 93.3
- MOLECULE: "FC(F)(F)c1ccc(-c2nc(-c3nc4cc(Cl)c(Cl)cc4[nH]3)c3ccccn23)cc1"
  growth, %: 3.78
- MOLECULE: "OC(CNC1CCCC1)Cn1c2ccccc2c2ccccc21 (centres undefined)"
  growth, %: 63.6
- MOLECULE: "COc1cc(/C=C/C(=O)c2cc(-c3ccc(C(F)(F)F)cc3)ccc2O)cc(OC)c1OC"
  growth, %: 59.4
- MOLECULE: "Cc1cc(O)c(C2=NN(c3ccc(S(N)(=O)=O)cc3)C(c3ccc(N(C)C)cc3)C2)c(C)c1Cl (centres undefined)"
  growth, %: 82.5
- MOLECULE: "O=C1CC[C@@H](C(=O)N[C@H]2CSSC[C@@H](C(=O)N/C=C/c3ccc(O)cc3)NC(=O)[C@H](Cc3ccccc3)NC(=O)[C@@H]3CCCN3C(=O)[C@@H]3CCCN3C2=O)N1"
  growth, %: 94.4
- MOLECULE: "COc1ccc(-c2nnc(N3CCN(C(=O)CN4CCN(c5ccc(Cl)cc5)CC4)CC3)nc2-c2ccc(OC)cc2)cc1"
  growth, %: 72.2
- MOLECULE: "CCCc1ccnc(NS(=O)(=O)c2ccc(N)cc2)n1"
  growth, %: 82
- MOLECULE: "O=C(c1ccc(Cl)cc1)c1no[n+]([O-])c1C(=O)c1ccc(Cl)cc1"
  growth, %: 109
- MOLECULE: "COc1cc(NS(C)(=O)=O)ccc1Nc1c2ccc(Cl)cc2nc2c(OC)cccc12"
  growth, %: 20.2
- MOLECULE: "COc1cc2nc(Sc3sc(N)nc3C)n(-c3ccc(Oc4ccccc4)cc3)c(=O)c2cc1OC"
  growth, %: 88.5
- MOLECULE: "CC(C)C[C@H](NC(=O)CCn1ccc2ccccc2c1=O)B(O)O"
  growth, %: 63.3
- MOLECULE: "CC(C)/C=N/NC(N)=S"
  growth, %: 90.7
- MOLECULE: "CN(C)CCCN1c2ccccc2Sc2ccc(C(F)(F)F)cc21"
  growth, %: 27
- MOLECULE: "Cc1cc(/C=C2\\SC(=Nc3ccccc3)N(C3CCCC3)C2=O)c(C)n1-c1ccc(Cl)cc1"
  growth, %: -12.8
- MOLECULE: "CCCCCCCCCCCC(=O)NCCCN(C)C"
  growth, %: 106
- MOLECULE: "CCOC(=O)Nc1ccc2c(c1)C(=O)N(CC)c1ccccc1O2"
  growth, %: 46
- MOLECULE: "C=CCn1c(C)nc2cc(Nc3nc(Nc4ccc5nc(C)n(CC=C)c5c4)c4ccccc4n3)ccc21"
  growth, %: -48.1
- MOLECULE: "Nc1c(C(=O)Nc2ccccc2F)sc2nc3c(cc12)C(=O)CCC3"
  growth, %: 37.2
- MOLECULE: "CCCc1c(C)nc2scc(-c3ccc(Cl)cc3)n2c1=O"
  growth, %: 101
